# Tested on: ATP;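 note: ATP exposure 15 min at 22 °C before imaging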
# assay: switch fluorescence ratio, 500 uM ATP over buffer (Cy3 cluster intensity, sum of 5 cycles each) (fold (ratio)); higher = stronger signal-on switching upon ATP binding; sequences stand for … in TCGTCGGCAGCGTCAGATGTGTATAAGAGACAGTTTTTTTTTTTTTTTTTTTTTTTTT…TC
# test-settings: aptamer strand: ATP DNA aptamer (quencher-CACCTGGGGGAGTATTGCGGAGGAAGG + anchor), 100 nM annealed; ATP concentration: 500 uM
metric-name: switch fluorescence ratio
Answers are plain numbers.

Use these answered entries as a reference point.
- entry-sequence: "ATCATTATAT"
  target-or-test-system: "ATP"
  result-number: 0.99
- entry-sequence: "TTAGCATGTT"
  target-or-test-system: "ATP"
  result-number: 1
- entry-sequence: "AGGATCGGGG"
  target-or-test-system: "ATP"
  result-number: 1.01
- entry-sequence: "CATTTTGTAG"
  target-or-test-system: "ATP"
  result-number: 1.04
- entry-sequence: "ACACAATAGG"
  target-or-test-system: "ATP"
  result-number: 1.04
- entry-sequence: "TTTAGAGCGT"
  target-or-test-system: "ATP"
  result-number: 0.993

Record switch fluorescence ratio per entry; entries follow.
1. TTAAGTTGCA
2. TTCTTGATAA
3. TCGATGGCAT
4. ACCAATTTTG

1: 1.05; 2: 1.01; 3: 1.31; 4: 1.01

====

Consider the following sequences; for each one, report its switch fluorescence ratio.
# Test system: ATP;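 note: ATP exposure 15 min at 22 °C before imaging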
# assay: switch fluorescence ratio, 500 uM ATP over buffer (Cy3 cluster intensity, sum of 5 cycles each) (fold (ratio)); higher = stronger signal-on switching upon ATP binding; sequences stand for … in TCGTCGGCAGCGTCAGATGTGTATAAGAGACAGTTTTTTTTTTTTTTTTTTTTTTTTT…TC
# test-settings: aptamer strand: ATP DNA aptamer (quencher-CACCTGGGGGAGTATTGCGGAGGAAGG + anchor), 100 nM annealed; ATP concentration: 500 uM
Give bare numbers.

- entry-sequence: "TTCTGGGGCT"
  switch fluorescence ratio: 1.03
- entry-sequence: "GAGTTGTCAA"
  switch fluorescence ratio: 0.972

Record switch fluorescence ratio per entry; entries follow.
1. TAAAAGGGAT
2. GATTCTTTAC
3. CTGGAGCGCT
4. GGGGTAAAAG
5. CAGGCGGCCC
6. CCGCTAGGGC
7. AGGGGGCCAG
8. AATAGATATG

1: 1.01; 2: 1.03; 3: 1.22; 4: 1.08; 5: 1.02; 6: 2.1; 7: 1; 8: 1.01

====

# Tested on: ATP;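 note: ATP exposure 15 min at 22 °C before imaging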
# assay: switch fluorescence ratio, 500 uM ATP over buffer (Cy3 cluster intensity, sum of 5 cycles each) (fold (ratio)); higher = stronger signal-on switching upon ATP binding; sequences stand for … in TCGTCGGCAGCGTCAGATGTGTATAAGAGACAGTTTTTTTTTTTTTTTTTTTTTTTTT…TC
# test-settings: aptamer strand: ATP DNA aptamer (quencher-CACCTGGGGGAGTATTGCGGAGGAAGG + anchor), 100 nM annealed; ATP concentration: 500 uM
metric-name: switch fluorescence ratio
Answers are plain numbers.

- entry-sequence: "GGGATATCGA"
  result-number: 0.975
- entry-sequence: "CAATACTACT"
  result-number: 1.36
- entry-sequence: "TATCGAAAAA"
  result-number: 0.967
- entry-sequence: "TCACGTAGGC"
  result-number: 1.04
- entry-sequence: "ATTTTTTGGG"
  result-number: 0.96

Record switch fluorescence ratio per entry; entries follow.
1. AGAGAGATGG
2. CCTGCTTTGG
3. TGAAGGGGAC
4. GAGTTACTTT
5. TTGGACCCAT
6. ATTTGGGGTT

1: 0.977; 2: 1.07; 3: 0.998; 4: 1.02; 5: 1.02; 6: 0.997
